Catalogue of compounds with associated IC50
# experimental target: Aldehyde dehydrogenase, mitochondrial (Mesocricetus auratus)
# test summary: Inhibition of hamster liver aldehyde dehydrogenase ALDH-2
Form entry: value (nM) — number only.

Use these answered entries as a reference point.
C=CCCCCOc1ccc2c(=O)c(-c3ccc(O)cc3)coc2c1 : 150
CCCCCCC(Oc1ccc2c(=O)c(-c3ccc(O)cc3)coc2c1)C(=O)OCC (centres undefined) : 7200

Recorded IC50 of CCOC(=O)CCCCCOc1ccc2c(=O)c(-c3ccc(O)cc3)coc2c1 , please.
280

Now consider C=CCOc1ccc2c(=O)c(-c3ccc(O)cc3)coc2c1 and answer again.
180
